Attribution: patent US20210230599

assayed.target: Interleukin-8 (IL8, CXCL8), C-terminal His-tagged (Homo sapiens, UniProt P10145 SEQ:1-72)
Sequence (P10145 28-99): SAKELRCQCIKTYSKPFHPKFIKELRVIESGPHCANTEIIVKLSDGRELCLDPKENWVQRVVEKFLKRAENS
assay.remarks: TR-FRET; bead flow 21 nM
applied.conditions: tags: C-terminal 6xHis (Sino Biological); label: Alexa Fluor 647
Description: Aptamers were synthesized and labeled with ALEXA FLUOR® 647, and binding to IL8 was quantified by Time-Resolved Fluorescence Resonance Energy Transfer (TR-FRET). […] The plate was read on a Biotek CYTATION™ 5 plate reader. […] Apparent Kd values obtained for the fits are calculated as the concentration of half-maximal binding and shown in Table 10, and fit curves as FIG. 6. […]
result.type: pKd
One number for each entry, as −log10 of the molar value.

Task item: // pKd lookup, key: UCGCUUGUACCUCUGAGAUGUGAGACUAAUGUAGGU (ssRNA, 2'-F G, 2'-OMe A/C/U, 5' C6NH2, 3' idT) [Aptamer 13]
Reply: 8.15
